The reported measurements were obtained from patent US4593090A.

test system: Leukemia L1210; experiment: Activity against Leukemia L1210, intraperitoneal, increase in life span of mice; type: in vivo, female mice (BDF1 family); settings: Mus musculus, L1210, ip, ip once a day for 5 successive days; daily dosage giving maximum increase of life span; read-out: O.D. (optimum dosage)
What log10 of ED (maximum ILS) was measured for each of the following?
log10 ED (maximum ILS), mg/kg

IN: Form field - read-out: log10 of ED (maximum ILS); system: Leukemia L1210; submitted item: `CCCN(C[C@@H]1O[C@@H](OCC(C)C)[C@@H](O)[C@H](O)[C@@H]1O)C(=O)N(CCCl)N=O`
OUT: 2.18

IN: Fill in the recorded log10 of ED (maximum ILS) for this compound, with Leukemia L1210 as test system: `CCCCO[C@H]1O[C@H](CO)[C@H](O)[C@H](O)[C@H]1N(CCC)C(=O)N(CCCl)N=O`
OUT: 2.30

IN: Which measured log10 of ED (maximum ILS) belongs to C=C(C)CN(C(=O)N(CCCl)N=O)C1C(CO)OC(OC(C)CC)C(O)C1O (stereo not drawn) , tested on Leukemia L1210?
OUT: 2.18

IN: Form field - read-out: log10 of ED (maximum ILS); system: Leukemia L1210; submitted item: CCCC(OC)O[C@H]1O[C@H](CN(CCC(C)(C)C)C(=O)N(CCCl)N=O)[C@@H](O)[C@H](O)[C@H]1O (stereo partly drawn)
OUT: 2.20

IN: What measured log10 of ED (maximum ILS) is associated with `COCCCN(C[C@H]1O[C@H](OCC(C)C)[C@H](O)[C@H]1O)C(=O)N(CCCl)N=O` on Leukemia L1210?
OUT: 2.20

IN: Give log10 of ED (maximum ILS) (Leukemia L1210) of the following compound: COCC(C)O[C@H]1O[C@H](CN(CC(C)C)C(=O)N(CCCl)N=O)[C@@H](O)[C@@H](O)[C@@H]1O (stereo partly drawn)
OUT: 2.20

IN: Form field: log10 of ED (maximum ILS) recorded for `COCCCN(C(=O)N(CCCl)N=O)[C@H]1CO[C@@H](OCC(C)C)[C@H](O)[C@H]1O` with Leukemia L1210 (enter value)
OUT: 2.20

IN: Provide the documented log10 of ED (maximum ILS) with Leukemia L1210 as the system for COC(C)CN(C(=O)N(CCCl)N=O)[C@@H]1[C@@H](OCC(C)C)OC[C@@H](O)[C@H]1O (stereo partly drawn)
OUT: 2.20

IN: Record lookup: for Leukemia L1210, what log10 of ED (maximum ILS) belongs to `COc1cccc(CN(C[C@H]2O[C@H](OC3CCCCC3)[C@H](O)[C@@H](O)[C@@H]2O)C(=O)N(CCCl)N=O)c1OC` ?
OUT: 2.23

IN: # value lookup — system Leukemia L1210, readout log10 of ED (maximum ILS), item `CCOCCCO[C@H]1O[C@H](CN(CC(C)C)C(=O)N(CCCl)N=O)[C@@H](O)[C@H](O)[C@H]1O`
OUT: 2.23

IN: Kindly state the measured log10 of ED (maximum ILS) obtained for CCC(C)O[C@H]1O[C@H](CO)[C@@H](O)[C@H](O)[C@H]1N(CC(C)C)C(=O)N(CCCl)N=O (stereo partly drawn) with Leukemia L1210.
OUT: 2.30

IN: Give the reported log10 of ED (maximum ILS) for `CC(C)CN(C[C@H]1O[C@@H](OC2CCCCC2)[C@H](O)[C@@H]1O)C(=O)N(CCCl)N=O` (system: Leukemia L1210).
OUT: 2.26

IN: Look up log10 of ED (maximum ILS) with Leukemia L1210 for this compound: `CCN(C[C@H]1O[C@H](OCC(C)C)[C@H](O)[C@@H](O)[C@H]1O)C(=O)N(CCCl)N=O`
OUT: 2.11

IN: // fetch Leukemia L1210 log10 of ED (maximum ILS) for O=NN(CCCl)C(=O)N[C@H]1C(O)O[C@H](CO)[C@@H](O)[C@@H]1O (stereo partly drawn) [DCNU, reference compound]
OUT: 0.79

IN: API: value(readout= log10 of ED (maximum ILS), system= Leukemia L1210, query= COCCN(C(=O)N(CCCl)N=O)C1C(CO)OC(OCC(C)C)C(O)C1O (stereo not drawn) )
OUT: 2.20
